Value source: paper PMC3893826

target: Human mTORC1 complex (Homo sapiens, UniProt P42345); experiment: In vitro mTORC1 kinase assay
experimental.endpoint: IC50
Provide a numeric answer, followed by its unit.

What measured IC50 goes with "COCCC(=O)N1CCN(c2ccc(Nc3ccnc4ccc(-c5cnc6ccccc6c5)cc34)cc2C(F)(F)F)CC1" ?
0.0826 µM
